Source: patent US6855843B2

Below, each of the compounds is paired with its reported melting point value.

{"columns": ["Molecule smiles", "melting point"],
 "data": [
  ["COCOc1ccc(OC)c(-c2ccc(C[C@H](NC(=O)c3c(Cl)cccc3Cl)C(=O)O)cc2)c1OC", "156 to 157 °C"],
  ["COc1cc(CCN2CCN(C)CC2)cc(OC)c1-c1ccc(C[C@H](NC(=O)c2c(Cl)cccc2Cl)C(=O)O)cc1", "178.9 °C"],
  ["C=CCNc1cc(OC)c(-c2ccc(C[C@H](NC(=O)c3c(Cl)cccc3Cl)C(=O)O)cc2)c(OC)c1", "262 to 263 °C (dec.)"],
  ["COc1cc(C(=O)NCCN2CCOCC2)cc(OC)c1-c1ccc(C[C@H](NC(=O)c2c(Cl)cccc2Cl)C(=O)O)cc1", "268 to 269 °C"],
  ["COc1cc(CCN2CCCCC2)cc(OC)c1-c1ccc(C[C@H](NC(=O)c2c(Cl)cccc2Cl)C(=O)O)cc1", "194.9 °C"],
  ["CCC(=O)c1cc(C[C@H](NC(=O)c2c(Cl)cccc2Cl)C(=O)O)ccc1-c1ccccc1OC", "118 to 119 °C"],
  ["COc1cccc(OC)c1-c1ccc(C[C@H](NC(=O)c2c(Cl)cc(NS(=O)(=O)c3cccs3)cc2Cl)C(=O)O)cc1", "141 to 142 °C"]
]}
